- runDescription: NCI Yeast Anticancer Drug Screen. Data for the mec2-1 strain (AID 157)
- experimentalContext: S. cerevisiae mec2-1 strain, at 50.0 µM, active compounds read high
About 79,000 compounds went through this panel and 15% of them were active in at least one assay; those are over-represented in the sample as a whole.
Could you please report measured growth inhibition for the items listed next?
Give just the numeric value; % need not be written.

Problem: growth inhibition for COC(=O)/C=C(\C)CC/C=C(\C)CCC1OC1(C)C (stereo unspecified) ?
Result: 44.1

Problem: Now the compound "O=C1OC(c2ccc(O)c(-c3ccccc3)c2)(c2ccc(O)c(-c3ccccc3)c2)c2c(Cl)c(Cl)c(Cl)c(Cl)c21"
Result: -18.4

Problem: Now the compound "CC(C)(O)c1c(F)c(F)c(F)c(F)c1F"
Result: -13.7

Problem: Now the compound "COc1ccc(NC(=S)NC(=O)c2ccccc2)cc1OC"
Result: 4.15

Problem: Now the compound "Cc1cc(Cc2ccc(NC(=O)N3CC3)c(C)c2)ccc1NC(=O)N1CC1"
Result: -8.25

Problem: Now the compound "CCCCCCCCSc1nc2ccc(N=Cc3ccccc3O)cc2s1"
Result: 31.7

Problem: Now the compound O=C1c2ccccc2CC12Cc1cc3c(cc1C2=O)CCC3 (stereo unspecified)
Result: -16.9

Problem: Now the compound "N#CC(=Nc1ccc2ccccc2c1)C1=C(O)c2ccccc2C1=O"
Result: -3.2

Problem: Now the compound "CCN(CC)C(=O)c1cc([N+](=O)[O-])c(=O)n2c1[nH]c1ccccc12"
Result: 6.8

Problem: Now the compound Cc1ccc([N+](=O)[O-])cc1NC(=O)C(=O)C1CCC2=C(Sc3ccccc3N2)C1=O (stereo unspecified)
Result: -16.9

Problem: Now the compound "O=C(COc1ccccc1)OCCCl"
Result: -15.3

Problem: Now the compound COC1C(O)CC(OC2CC(OC3CC(O[C@@H]4C(=O)c5c(cc6cc(OC7CC(OC8CC(O)C(O)C(C)O8)C(O)C(C)O7)c(C)c(O)c6c5O)C[C@H]4[C@H](OC)C(=O)[C@@H](O)[C@@H](C)O)OC(C)C3O)OC(C)C2O)OC1C (stereo partly specified)
Result: 28.9

Problem: Now the compound O=c1[nH]c(=O)c2ncn(C3OC(CO)C(O)C3O)c2[nH]1.O=c1[nH]c(=O)c2ncn(C3OC(CO)C(O)C3O)c2[nH]1.[NH2-].[NH2-].[Pt+2] (stereo unspecified)
Result: 33.5

Problem: Now the compound "Cc1cccc(C(=O)NCC(=O)O)c1"
Result: -3.7

Problem: Now the compound CC1OC(n2cc(F)c(=O)[nH]c2=O)CCC1O (stereo unspecified)
Result: 10.2

Problem: Now the compound "O=C1C=CSc2ccccc2N1"
Result: 2.5

Problem: Now the compound Cc1ccc(S(=O)(=O)N2CCCC2C(=O)O[C@H]2CC[C@H]3CC=C[C@H]32)cc1 (stereo partly specified)
Result: -44.7

Problem: Now the compound C=C[C@]1(C)CC(=O)C(C(C)C=O)[C@]12C(=O)Oc1cccc(C)c1C2=O (stereo partly specified)
Result: 85.5

Problem: Now the compound "CC1=N/C(=C\c2ccc([N+](=O)[O-])cc2)C(=O)O1"
Result: 9.05

Problem: Now the compound "CNC(=O)SC1=NS(=O)(=O)c2ccc(Cl)cc2N1"
Result: 19.5

Problem: Now the compound "O=C(N(CCc1ccc(O)cc1)Cc1ccc2c(c1)OCO2)C(F)(F)F"
Result: 96.8

Problem: Now the compound "CCCO/N=[N+](\[O-])N(CC)CC"
Result: -17.4

Problem: Now the compound "Clc1ccccc1/C=C/c1ccnnc1"
Result: 18.6

Problem: Now the compound "CCN(CC)C(=O)c1ccc[n+](CCC(N)=O)c1"
Result: -17.8

Problem: Now the compound "Clc1nc(-c2ccccc2)nc2ccccc12"
Result: -17.6

Problem: Now the compound "Cc1ccc(S(=O)(=O)/C=C(\I)c2ccc([N+](=O)[O-])cc2)cc1"
Result: 99.2

Problem: Now the compound "O=C(O)C(CCl)(CCl)CCl"
Result: 1.3

Problem: Now the compound "[N-]=[N+]=CC(=O)c1cc(-c2ccccc2)nc2c(-c3ccccc3)cccc12"
Result: 18.8

Problem: Now the compound "C=CCOC(=O)Cc1ccccc1C(=O)OCC=C"
Result: -1.2

Problem: Now the compound "Cn1cc(S(=O)(=O)NC(=O)Nc2ccc(Cl)cc2)c2ccccc21"
Result: -9.85

Problem: Now the compound O=C1OC(=O)C2C3C=CC(C3)C12 (stereo unspecified)
Result: -5.35

Problem: Now the compound "O=C(NC(=S)Nc1ccc([N+](=O)[O-])cc1Cl)c1ccccc1F"
Result: 6.1

Problem: Now the compound "CCCCCCCCCCCCCCCCCCCCCCCCCCCCCCS(=O)(=O)Cl"
Result: 28.1

Problem: Now the compound "c1ccc2c(c1)nc(NC1CCCC1)c1[nH]c(C3CCCC3)nc12"
Result: -36.6

Problem: Now the compound "C[C@@H]1S[C@H](c2c(F)cccc2Cl)n2c1nc1ccccc12"
Result: 82.7

Problem: Now the compound "Clc1cnc(/N=C/c2ccc(/C=N/c3ncc(Cl)cc3Cl)cc2)c(Cl)c1"
Result: -21.8

Problem: Now the compound "O=C1CCN(Cc2ccco2)C(=O)N1"
Result: -12.3

Problem: Now the compound "CCOc1ccc2c(c1)nc1ccccc1[n+]2C"
Result: 15.4

Problem: Now the compound CCCC(C(O)CC)[N+](=O)[O-] (stereo unspecified)
Result: -16.1

Problem: Now the compound CC(CC(C)(C)C)C(=O)O (stereo unspecified)
Result: -5.75

Problem: Now the compound "Cc1cc(Cl)ccc1OCC(=O)OCC(C)(C)[N+](=O)[O-]"
Result: 19.1

Problem: Now the compound "CC[N+](CC)(CC)CCC[n+]1ccc(/C=N\O)cc1"
Result: -1.6

Problem: Now the compound "COc1ccc2nc(NCN3C(=O)c4ccccc4C3=O)sc2c1"
Result: -4.05

Problem: Now the compound COC(=O)C(N)C(C)(C)S (stereo unspecified)
Result: -2.75

Problem: Now the compound "Cc1nc2c(-c3ccccc3)[nH]c(C)c2c(=O)o1"
Result: -40.1

Problem: Now the compound "Cc1ccc(/C=N/NC(N)=S)c(C)c1"
Result: -25.4
